Each recorded value in this set is attributed to patent US20210340208A1.

# testedOn: T1, human CD122-Fc (AbroBio) (human, UniProt P14784 27-239)
# T1 construct: also called IL-2Rβ; not shown: Fc part and any linker of the bought protein are not described; captured on an anti-human Fc sensor
# T1 sequence: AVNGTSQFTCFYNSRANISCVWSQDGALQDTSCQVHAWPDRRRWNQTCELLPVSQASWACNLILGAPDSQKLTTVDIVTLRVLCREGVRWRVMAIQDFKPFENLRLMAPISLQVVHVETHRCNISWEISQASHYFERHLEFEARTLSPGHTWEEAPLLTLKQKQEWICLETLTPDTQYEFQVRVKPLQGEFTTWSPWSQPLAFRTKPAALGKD
# protocolSummary: BLI (Octet RED96), CD122-Fc on AHC sensor, 400 nM hIL-2 polypeptide
endpoint: CD122 Binding Response (A1 normalized to 1)
// return a plain number; no unit text

Worked cases, answers included:
hIL-2-anti-HSA A72 (ligand, fused to anti-HSA VHH; also called hIL-2 mutein (K32E, F42C, V69C, E95N, C125S)) APTSSSTKKTQLQLEHLLLDLQMILNGINNYENPKLTRMLTCKFYMPKKATELKHLQCLEEELKPLEECLNLAQSKNFHLRPRDLISNINVIVLNLKGSETTFMCEYADETATIVEFLNRWITFSQSIISTLTGSGGSGGSGGSGEVQLVESGGGLVQPGGSLRLSCAASGSTWSINTLAWYRQAPGKQRDLVARISSGGSTYYADSVKGRFTISRDNSKNTLYLQMNSLRAEDTAVYYCYAQSTWYPPSWGQGTLVTVSS    0.39
hIL-2-anti-HSA A59 (ligand, fused to anti-HSA VHH; also called hIL-2 mutein (T3A, Q13E, R38N, L40T, F42A, C125S)) APASSSTKKTQLELEHLLLDLQMILNGINNYKNPKLTNMTTAKFYMPKKATELKHLQCLEEELKPLEEVLNLAQSKNFHLRPRDLISNINVIVLELKGSETTFMCEYADETATIVEFLNRWITFSQSIISTLTGSGGSGGSGGSGEVQLVESGGGLVQPGGSLRLSCAASGSTWSINTLAWYRQAPGKQRDLVARISSGGSTYYADSVKGRFTISRDNSKNTLYLQMNSLRAEDTAVYYCYAQSTWYPPSWGQGTLVTVSS    0.55

## Input Can you look up the measured CD122 Binding Response (A1 normalized to 1) of hIL-2-anti-HSA A62 (ligand, fused to anti-HSA VHH; also called hIL-2 mutein (T3A, M23K, R38N, L40T, F42A, C125S)) APASSSTKKTQLQLEHLLLDLQKILNGINNYKNPKLTNMTTAKFYMPKKATELKHLQCLEEELKPLEEVLNLAQSKNFHLRPRDLISNINVIVLELKGSETTFMCEYADETATIVEFLNRWITFSQSIISTLTGSGGSGGSGGSGEVQLVESGGGLVQPGGSLRLSCAASGSTWSINTLAWYRQAPGKQRDLVARISSGGSTYYADSVKGRFTISRDNSKNTLYLQMNSLRAEDTAVYYCYAQSTWYPPSWGQGTLVTVSS for me?
## Output 0.29
